All figures here come from patent US20090305995A1.

# experiment: high throughput permeability (HT-Permeability, log Pe)
# Type: physicochemical
# test settings: PAMPA, pH 8, pH 8.0; Pe in cm/s; read-out: HT-Permeability logPe pH 8.0 (converted)
Decision: Papp compared against 40 nm/s; not below it gives Condition met, below it gives Condition not met.

Task item: For this compound, is measured Papp 40 nm/s or higher? CCCCNC(=O)C[C@H](CCCCN)NC(=O)[C@@H](Cc1c[nH]c2ccccc12)NC(=O)C[C@H](Cc1ccccc1)NC(C)=O
Reply: Condition not met

Task item: For this compound, is measured Papp 40 nm/s or higher? CCCCCCN(C)C(=O)C[C@H](CCCCN)NC(=O)[C@@H](Cc1c[nH]c2ccccc12)N(C)C(=O)C[C@H](Cc1ccccc1)NC(=O)CC
Reply: Condition met

Task item: For this compound, is measured Papp 40 nm/s or higher? C[C@@H](O)[C@@H](CC(N)=O)NC(=O)C[C@H](CCCCN)NC(=O)[C@@H](Cc1c[nH]c2ccccc12)NC(=O)C[C@H](Cc1ccccc1)NC(=O)CCc1ccccc1
Reply: Condition met

Task item: For this compound, is measured Papp 40 nm/s or higher? NCCCC[C@@H](CC(=O)NC1CCCC1)NC(=O)[C@@H](Cc1c[nH]c2ccccc12)NC(=O)C[C@H](Cc1ccccc1)NC(=O)C12CC3CC(CC(C3)C1)C2
Reply: Condition not met

Task item: For this compound, is measured Papp 40 nm/s or higher? CN(C(=O)C[C@@H](N)Cc1ccccc1)[C@H](Cc1c[nH]c2ccccc12)C(=O)N[C@@H](CCCCN)CC(N)=O
Reply: Condition met
